method-description: Hematology assays after oral gavage in CD-1 mice (Example 7)
Type: in vivo
condition-label: 500 mg/kg oral gavage once daily for 4 weeks
// reported Lymphocytes per item

substance | Lymphocytes (%)
830121 (AGAATCAAGCCCTGGC; 3-10-3 cEt gapmer, further chemistry not given here) [compound 830121] | 81.7
798781 (CGTAAGATTCACAGCA; 3-10-3 cEt gapmer, further chemistry not given here) [compound 798781] | 74.0
830037 (antisense CTATTGGCTGATCTGG; 3-10-3 cEt gapmer, further chemistry not given here) [compound 830037] | 73.2
829994 (GGAGGCAGGGCCGCGA; 3-10-3 cEt gapmer, further chemistry not given here) [compound 829994] | 80.4
790615 (CCAATGAGAATGCTTC; 3-10-3 cEt gapmer, further chemistry not given here) [compound 790615] | 78.3
830025 (antisense TTTGTAAATCGAAAGC; 3-10-3 cEt gapmer, further chemistry not given here) [compound 830025] | 77.6
